# MEASURED_TARGET: recombinant human HPK1 (Homo sapiens (Human), UniProt Q92918)
# Sequence (Q92918 whole entry): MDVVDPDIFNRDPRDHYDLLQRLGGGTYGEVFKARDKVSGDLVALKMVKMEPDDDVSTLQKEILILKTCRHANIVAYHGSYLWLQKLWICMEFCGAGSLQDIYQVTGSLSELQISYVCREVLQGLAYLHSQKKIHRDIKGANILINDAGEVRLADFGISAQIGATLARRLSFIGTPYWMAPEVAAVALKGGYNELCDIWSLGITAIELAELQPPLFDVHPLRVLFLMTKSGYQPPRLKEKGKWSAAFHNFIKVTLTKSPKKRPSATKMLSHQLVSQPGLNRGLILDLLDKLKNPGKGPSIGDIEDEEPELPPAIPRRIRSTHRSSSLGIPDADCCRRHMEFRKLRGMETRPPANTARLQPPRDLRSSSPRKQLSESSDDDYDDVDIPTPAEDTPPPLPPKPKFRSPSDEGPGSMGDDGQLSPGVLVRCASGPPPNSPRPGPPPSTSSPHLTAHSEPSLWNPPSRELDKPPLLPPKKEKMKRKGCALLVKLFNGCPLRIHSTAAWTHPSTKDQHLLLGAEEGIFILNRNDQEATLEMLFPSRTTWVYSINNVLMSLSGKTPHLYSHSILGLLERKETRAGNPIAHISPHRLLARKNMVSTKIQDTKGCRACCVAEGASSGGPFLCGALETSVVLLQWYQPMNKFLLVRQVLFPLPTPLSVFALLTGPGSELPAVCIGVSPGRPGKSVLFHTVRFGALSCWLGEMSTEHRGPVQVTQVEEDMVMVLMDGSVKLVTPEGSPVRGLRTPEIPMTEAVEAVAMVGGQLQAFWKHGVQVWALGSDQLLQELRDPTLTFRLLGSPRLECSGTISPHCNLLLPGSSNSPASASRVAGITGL
# EXPERIMENTAL_PROTOCOL: HPK1 kinase assay (ADP-Glo)
# SETTINGS: 25 μM ATP, MBP substrate
MEASURED_PARAMETER: IC50

Illustrative cases are given below, each with its answer.
CSc1c(F)c(F)c2[nH]ncc2c1-c1ccc2nc(NC(=O)[C@@H]3C[C@@H]3F)sc2n1 [Example 187]	< 100 nM
Cc1c(F)c(C(F)(F)F)c2[nH]ncc2c1-c1ccc2nc(NC(=O)[C@@H]3C[C@@H]3F)sc2n1 [Example 205]	< 100 nM
CN(C)c1c(F)c(Cl)c(-c2ccc3nc(NC(=O)NC4CC4)cn3c2)c2cn[nH]c12 [Example 387]	< 100 nM
O=C(Nc1nc2ccc(-c3c(Cl)c(F)cc4[nH]ncc34)nc2s1)[C@@H]1C[C@@H]1F [Example 153]	< 100 nM
Cc1ccc2[nH]ncc2c1-c1ccc2nc(NC(=O)C3CCCC3)sc2c1 [Example 10]	> 1000 nM
O=C(Nc1nc2ccc(-c3cc(Cl)cc4[nH]ncc34)cc2s1)C1CC1 [Example 20]	> 1000 nM

Could you tell me which IC50 is on file for CCc1c(F)c(C(F)(F)F)c2[nH]ncc2c1-c1ccc2nc(NC(=O)[C@@H]3C[C@@H]3F)sc2n1 [Example 210] ?
< 100 nM

Could you tell me which IC50 is on file for Cc1ccc2[nH]ncc2c1-c1ccc2nc(NC(=O)C3CC3)sc2c1 [Example 1] ?
101 to 500 nM

====

# reported IC50; entries follow
# MEASURED_TARGET: recombinant human HPK1 (Homo sapiens (Human))
# EXPERIMENTAL_PROTOCOL: HPK1 kinase assay (ADP-Glo)
# SETTINGS: 25 μM ATP, MBP substrate

Nc1ccc2[nH]ncc2c1-c1ccc2nc(NC(=O)C3CC3)cn2c1	> 1000 nM
CCc1c(F)c(SCC(=O)N(C)C)c2[nH]ncc2c1-c1ccn2nc(NC(=O)[C@@H]3C[C@@H]3F)cc2c1	< 100 nM

Could you tell me which IC50 is on file for O=C(Nc1nc2ccc(-c3c(-c4ccsc4)ccc4[nH]ncc34)cc2s1)C1CC1 ?
> 1000 nM

Could you tell me which IC50 is on file for COC(=O)c1c(F)c(Cl)c(-c2ccc3nc(NC(=O)[C@@H]4C[C@@H]4F)sc3c2)c2cn[nH]c12 ?
< 100 nM

====

# MEASURED_TARGET: recombinant human HPK1 (Homo sapiens (Human), UniProt Q92918)
# EXPERIMENTAL_PROTOCOL: HPK1 kinase assay (ADP-Glo)
# SETTINGS: 25 μM ATP, MBP substrate
pIC50: −log10 of the molar value.
# reported pIC50; entries follow

O=C(Nc1nc2ccc(-c3c(C(F)(F)F)c(F)c(Cl)c4[nH]ncc34)nc2s1)[C@@H]1C[C@@H]1F [Example 198]	> 7.00
O=C(Nc1nc2ccc(-c3c(Cl)ccc4[nH]ncc34)cc2s1)C1CC1 [Example 16]	6.30 to 7.00
Cc1c(F)c([S+](C)[O-])c2[nH]ncc2c1-c1ccc2nc(NC(=O)[C@@H]3C[C@@H]3F)sc2c1 (stereo partly drawn) [Example 66]	> 7.00

Could you tell me which pIC50 is on file for Cc1ncc(-c2c(F)c(Cl)c(-c3ccc4nc(NC(=O)[C@@H]5C[C@@H]5F)cn4c3)c3cn[nH]c23)[nH]1 [Example 442] ?
> 7.00

Could you tell me which pIC50 is on file for CN(C)C(=O)c1c(F)c(Cl)c(-c2ccc3nc(NC(=O)[C@@H]4C[C@@H]4F)sc3c2)c2cn[nH]c12 [Example 125] ?
> 7.00

Could you tell me which pIC50 is on file for Cc1ccc2[nH]ncc2c1-c1ccc2nc(NC(=O)C3CC3CO)cn2c1 (stereo not drawn) [Example 278] ?
< 6.00

Could you tell me which pIC50 is on file for O=C(Nc1cn2cc(-c3c(C(F)(F)F)ccc4[nH]ncc34)ccc2n1)[C@@H]1C[C@@H]1F [Example 236] ?
> 7.00

Could you tell me which pIC50 is on file for CC(NC=O)c1c(F)c(Cl)c(-c2ccn3nc(NC(=O)[C@@H]4C[C@@H]4F)cc3c2)c2cn[nH]c12 (stereo partly drawn) [Example 659] ?
> 7.00

Could you tell me which pIC50 is on file for O=C(Nc1cn2cc(-c3c(Cl)c(F)c(NC4CC4)c4[nH]ncc34)ccc2n1)[C@@H]1C[C@@H]1F [Example 367] ?
> 7.00

Could you tell me which pIC50 is on file for CN(CCO)c1c(F)c(Cl)c(-c2ccc3nc(NC(=O)[C@@H]4C[C@@H]4F)sc3c2)c2cn[nH]c12 [Example 93] ?
> 7.00

Could you tell me which pIC50 is on file for Cn1nnnc1-c1c(F)c(Cl)c(-c2ccc3nc(NC(=O)[C@@H]4C[C@@H]4F)cn3c2)c2cn[nH]c12 [Example 350] ?
> 7.00

Could you tell me which pIC50 is on file for Cc1c(F)cc2[nH]nc(C)c2c1-c1ccn2nc(NC(=O)[C@@H]3C[C@@H]3F)cc2c1 [Example 470] ?
6.30 to 7.00

====

# reported pIC50; entries follow
# MEASURED_TARGET: recombinant human HPK1 (Homo sapiens (Human))
# EXPERIMENTAL_PROTOCOL: HPK1 kinase assay (ADP-Glo)
# SETTINGS: 25 μM ATP, MBP substrate
# Procedure: HPK1 kinase activity was measured by Promega's ADP-Glo™ kinase assay. […] Luminescence was detected after 30-min room temperature incubation with the Molecular device I3X plate reader. The IC50 values were calculated from a series of percent inhibition values determined at a range of inhibitor concentration using software routines as implemented in the GraphPad Prism 7 software and SigmaPlot13.0.
pIC50: −log10 of the molar value.

Could you tell me which pIC50 is on file for CN(Nc1c(F)c(Cl)c(-c2ccc3nc(NC(=O)[C@@H]4C[C@@H]4F)sc3n2)c2cn[nH]c12)C(=O)OC(C)(C)C ?
> 7.00

Could you tell me which pIC50 is on file for O=C(Nc1cn2cc(-c3c(Cl)c(F)c(N(C(=O)C(F)(F)F)C4CC4)c4[nH]ncc34)ccc2n1)[C@@H]1C[C@@H]1F ?
> 7.00

Could you tell me which pIC50 is on file for CN(C)CCOc1ccc2[nH]ncc2c1-c1ccc2nc(NC(=O)[C@@H]3C[C@@H]3F)sc2c1 ?
< 6.00

Could you tell me which pIC50 is on file for O=C(Nc1cn2cc(-c3c(Cl)c(F)cc4[nH]ncc34)ccc2n1)C1CC1 ?
6.30 to 7.00

Could you tell me which pIC50 is on file for C=Cc1c(F)c(C)c(-c2ccc3nc(NC(=O)[C@@H]4C[C@@H]4F)sc3c2)c2cn[nH]c12 ?
6.30 to 7.00

====

# MEASURED_TARGET: recombinant human HPK1 (Homo sapiens (Human), UniProt Q92918)
# EXPERIMENTAL_PROTOCOL: HPK1 kinase assay (ADP-Glo)
# SETTINGS: 25 μM ATP, MBP substrate
pIC50: −log10 of the molar value.
# reported pIC50; entries follow

Illustrative cases are given below, each with its answer.
Cc1ccc2[nH]ncc2c1-c1ccc2nc(NC(=O)[C@@H]3C[C@@H]3F)sc2n1	6.30 to 7.00
CN(C)c1c(F)cc2[nH]ncc2c1-c1ccn2nc(NC(=O)[C@@H]3C[C@@H]3F)cc2c1	6.30 to 7.00
CNc1ccc2[nH]ncc2c1-c1ccc2nc(NC(=O)C3CC3)cn2c1	> 7.00

For the next question, use this compound.
Could you tell me which pIC50 is on file for Cc1c(F)c(Cl)c2[nH]nc(Cl)c2c1-c1cc(Cl)c2nc(NC(=O)[C@@H]3C[C@@H]3F)sc2c1 ?
< 6.00

====

# reported IC50; entries follow
# MEASURED_TARGET: recombinant human HPK1 (Homo sapiens (Human), UniProt Q92918)
# EXPERIMENTAL_PROTOCOL: HPK1 kinase assay (ADP-Glo)
# SETTINGS: 25 μM ATP, MBP substrate

CN(c1c(F)c(Cl)c(-c2ccn3nc(NC(=O)[C@@H]4C[C@@H]4F)cc3c2)c2cn[nH]c12)C1CCC(O)C1 (some centres unmarked)	< 100 nM

Requested read-out IC50, target or system recombinant human HPK1 (Homo sapiens (Human), UniProt Q92918), entry COC(=O)c1c(F)c(C)c(-c2ccc3nc(NC(=O)[C@@H]4C[C@@H]4F)sc3n2)c2cn[nH]c12
< 100 nM

Requested read-out IC50, target or system recombinant human HPK1 (Homo sapiens (Human), UniProt Q92918), entry Cc1c(F)c(S(C)(=O)=O)c2[nH]ncc2c1-c1ccc2nc(NC(=O)[C@@H]3C[C@@H]3F)cn2c1 [Example 270]
101 to 500 nM

Requested read-out IC50, target or system recombinant human HPK1 (Homo sapiens (Human), UniProt Q92918), entry CCN(C)c1c(F)c(SC)c(-c2ccc3nc(NC(=O)[C@@H]4C[C@@H]4F)cn3c2)c2cn[nH]c12
< 100 nM

Requested read-out IC50, target or system recombinant human HPK1 (Homo sapiens (Human), UniProt Q92918), entry CCOc1c(F)c(Cl)c(-c2ccc3nc(NC(=O)[C@@H]4C[C@@H]4F)sc3n2)c2cn[nH]c12
< 100 nM

Requested read-out IC50, target or system recombinant human HPK1 (Homo sapiens (Human), UniProt Q92918), entry COC1CN(c2c(F)c(Cl)c(-c3ccn4nc(NC(=O)[C@@H]5C[C@@H]5F)cc4c3)c3cn[nH]c23)C1
< 100 nM

Requested read-out IC50, target or system recombinant human HPK1 (Homo sapiens (Human), UniProt Q92918), entry COC(C)(C)c1c(F)c(Cl)c(-c2ccc3nc(NC(=O)[C@@H]4C[C@@H]4F)cn3c2)c2cn[nH]c12
< 100 nM

Requested read-out IC50, target or system recombinant human HPK1 (Homo sapiens (Human), UniProt Q92918), entry CC(NC=O)c1c(F)c(Cl)c(-c2ccc3nc(NC(=O)[C@@H]4C[C@@H]4F)cn3c2)c2cn[nH]c12 (some centres unmarked)
< 100 nM

Requested read-out IC50, target or system recombinant human HPK1 (Homo sapiens (Human), UniProt Q92918), entry CSc1c(F)cc2[nH]ncc2c1-c1cc2sc(NC(=O)[C@@H]3C[C@@H]3F)nc2cn1
101 to 500 nM

Requested read-out IC50, target or system recombinant human HPK1 (Homo sapiens (Human), UniProt Q92918), entry CC(=O)c1ccc2[nH]ncc2c1-c1ccn2nc(NC(=O)[C@@H]3C[C@@H]3F)cc2c1
501 to 1000 nM

Requested read-out IC50, target or system recombinant human HPK1 (Homo sapiens (Human), UniProt Q92918), entry Cc1c(F)c(SCCO)c2[nH]ncc2c1-c1ccn2nc(NC(=O)[C@@H]3C[C@@H]3F)cc2c1
< 100 nM

Requested read-out IC50, target or system recombinant human HPK1 (Homo sapiens (Human), UniProt Q92918), entry CN(c1c(F)c(Cl)c(-c2ccn3nc(NC(=O)[C@@H]4C[C@@H]4F)cc3c2)c2cn[nH]c12)C1CCC(N)C1 (some centres unmarked)
< 100 nM

Requested read-out IC50, target or system recombinant human HPK1 (Homo sapiens (Human), UniProt Q92918), entry Cc1c(F)c(Br)c2[nH]ncc2c1-c1ccc2nc(NC(=O)[C@@H]3C[C@@H]3F)cn2c1
< 100 nM

Requested read-out IC50, target or system recombinant human HPK1 (Homo sapiens (Human), UniProt Q92918), entry CCN(C)c1c(F)c(Cl)c(-c2ccc3nc(NC(=O)[C@@H]4C[C@@H]4F)sc3c2)c2cn[nH]c12
< 100 nM

The measurements presented in this section are drawn from patent US11649255B2.
